Each record here notes measured IC50.
test system: HeLa; experiment: Cytotoxicity against human HeLa cells assessed as cell survival after 7 hrs by MTT assay; assay type: functional, cell-based
Readout Type: IC50 (µM)

[[record]]
compound = "CCN(CC)CCCC(C)Nc1ccnc2cc(Cl)ccc12 (stereo not given) [CHLOROQUINE]"
tested_target = "HeLa"
inequality_symbol = "="
measurement = 9.67

[[record]]
compound = "S=C(Nc1ccnc2cc(Cl)ccc12)N1CCN(Cc2ccccc2)CC1"
tested_target = "HeLa"
inequality_symbol = "="
measurement = 28.9

[[record]]
compound = "CN(C)CCCNC(=S)Nc1ccnc2cc(Cl)ccc12"
tested_target = "HeLa"
inequality_symbol = "="
measurement = 48.5

[[record]]
compound = "S=C(Nc1ccnc2cc(Cl)ccc12)N1CCN(c2ccccc2)CC1"
tested_target = "HeLa"
inequality_symbol = "="
measurement = 43.6

[[record]]
compound = "CCOC(=O)N1CCN(C(=S)Nc2ccnc3cc(Cl)ccc23)CC1"
tested_target = "HeLa"
inequality_symbol = "="
measurement = 40.1

[[record]]
compound = "NCCNC(=S)Nc1ccnc2cc(Cl)ccc12"
tested_target = "HeLa"
inequality_symbol = "="
measurement = 18

[[record]]
compound = "S=C(Nc1ccnc2cc(Cl)ccc12)N1CCN(CC2CCCCC2)CC1"
tested_target = "HeLa"
inequality_symbol = ">"
measurement = 50

[[record]]
compound = "CCN(CC)CCCNC(=S)Nc1ccnc2cc(Cl)ccc12"
tested_target = "HeLa"
inequality_symbol = "="
measurement = 49.2

[[record]]
compound = "OCCNC(=S)Nc1ccnc2cc(Cl)ccc12"
tested_target = "HeLa"
inequality_symbol = ">"
measurement = 50

[[record]]
compound = "CCN1CCN(C(=S)Nc2ccnc3cc(Cl)ccc23)CC1"
tested_target = "HeLa"
inequality_symbol = ">"
measurement = 50

